Values were extracted from patent US20170313754A1.

// Potency EC50 (nM), ferroportin-GFP internalization/degradation lookup, one value per entry
tgt: T1, human ferroportin (SLC40A1) fused in frame with GFP, stably expressed in HEK293 cells (human, UniProt Q9NP59 1-571)
T1 sequence (looked up): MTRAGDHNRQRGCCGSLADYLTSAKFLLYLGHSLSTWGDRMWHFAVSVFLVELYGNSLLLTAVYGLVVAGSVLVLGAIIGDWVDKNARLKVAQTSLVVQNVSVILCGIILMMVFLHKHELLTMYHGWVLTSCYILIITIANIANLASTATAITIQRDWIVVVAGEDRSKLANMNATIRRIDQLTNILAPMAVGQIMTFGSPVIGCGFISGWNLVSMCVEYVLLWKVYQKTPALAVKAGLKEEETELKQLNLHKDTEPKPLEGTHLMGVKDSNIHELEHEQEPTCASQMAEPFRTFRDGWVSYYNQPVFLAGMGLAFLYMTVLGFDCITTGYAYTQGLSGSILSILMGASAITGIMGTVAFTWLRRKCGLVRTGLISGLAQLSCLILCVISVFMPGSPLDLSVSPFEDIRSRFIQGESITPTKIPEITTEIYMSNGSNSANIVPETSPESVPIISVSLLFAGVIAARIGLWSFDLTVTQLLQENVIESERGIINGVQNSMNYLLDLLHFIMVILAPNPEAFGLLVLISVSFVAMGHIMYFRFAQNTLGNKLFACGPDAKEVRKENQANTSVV
experiment description: cell-based or functional assay
Numbered stars: 1 amine (or outer) side, 2 acyl side, 3 side chain; on linkers, the order of the positions; unused ones are H or OH. Bridge positions count the residues as written; N and C are the ends. Side chains are listed from the residue outwards. * marks the point of attachment. γGlu = O=C(O)[C@H](CCC(=O)[*:2])N[*:1]; Palmitoyl = CCCCCCCCCCCCCCCC(=O)*; Isovaleryl = CC(C)CC(=O)*

Here are 2 binders together with their reported answers.
>>> observed_result("Isovaleryl-DTHFPCIKFEPRSKK([γGlu-Palmitoyl])CK-NH2 (disulfide 6-16 (inferred)) [Isovaleric acid-DTHFPCIKFEPRSK-K(isoglu-Palm)-CK-NH2]")
"4 nM"
>>> observed_result("H-ATHFPCIIF-NH2 [Hy-ATHFPCIIF-NH2]")
"> 1000 nM"

API: the following record is the query input.
Exercise: Indicate its recorded Potency EC50 (nM), ferroportin-GFP internalization/degradation; the binder in question is Isovaleryl-STHAPCIKFEPRSKGWECK-NH2 (disulfide 6-18 (inferred)) [Isovaleric acid-STHAPCIKFEPRSKGWECK-NH2]
Key: > 10000 nM
